Cited source: PubChem BioAssay AID504329

Reported inhibition by item:
# assaySummary: H1N1 influenza NS1A inhibitors, functional cell based assay (AID 504329)
# experimentalContext: percent inhibition, at 12.5 µM, stronger effect = higher value
Out of some 340,000 compounds screened, about 1,000 (0.29%) were called active. The list is a sample of the results. Measured potencies and affinities stand elsewhere.
The reply should be a number in %, with the unit left off.

Below: 3 molecules and their reported inhibition.
• C=C(C)COc1ccc(-c2[nH]ncc2Oc2ccccc2OC)c(O)c1 = -3.04
• O=S1(=O)NC(=NCCc2ccccn2)c2ccccc21 = -4.92
• NC(=O)c1c(NC(=O)Cn2nc(C(=O)O)c3ccccc3c2=O)sc2c1CCC2 = 0.19

API: the following record is the query input.
Param item = `Cc1ccc2cccnc2c1N` ; retrieve measured inhibition. -4.2
